Reported Kd values follow for various binders
assayed-target: T1, recombinant human PD-1 expressed with a C-terminal myc-myc-hexahistidine tag (human)
T1 construct: monomeric; also called hPD-1-MMH; human PD-1-MMH
T1 sequence (chain, as listed by the source limits assumed): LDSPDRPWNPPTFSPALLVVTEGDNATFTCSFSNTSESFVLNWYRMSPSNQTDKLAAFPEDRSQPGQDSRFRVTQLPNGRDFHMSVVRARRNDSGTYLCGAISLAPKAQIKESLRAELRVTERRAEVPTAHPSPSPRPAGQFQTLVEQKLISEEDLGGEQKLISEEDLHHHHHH
protocol-details: SPR, mAb captured, 37C;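 note: rate constants from fitting sensorgrams to a 1:1 binding model, KD derived as kd divided by ka and half-life as ln2/(60·kd)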
measured-attribute: Kd (nM)

binder | quantity-unit | measurement
H2aM7796N (antibody, mouse IgG2a, V domains shown, Human variable regions, mouse IgG2a Fc; also called H2M7796N) VH: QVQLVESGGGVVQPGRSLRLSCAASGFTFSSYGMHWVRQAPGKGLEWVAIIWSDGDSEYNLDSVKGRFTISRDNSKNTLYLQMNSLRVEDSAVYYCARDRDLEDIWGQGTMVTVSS VL: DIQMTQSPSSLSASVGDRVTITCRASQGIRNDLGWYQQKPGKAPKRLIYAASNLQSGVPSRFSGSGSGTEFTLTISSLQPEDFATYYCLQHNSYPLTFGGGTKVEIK | nM | 1510
H2aM7780N (antibody, mouse IgG2a, V domains shown, Human variable regions, mouse IgG2a Fc (H2aM prefix); also called H2M7780N) VH: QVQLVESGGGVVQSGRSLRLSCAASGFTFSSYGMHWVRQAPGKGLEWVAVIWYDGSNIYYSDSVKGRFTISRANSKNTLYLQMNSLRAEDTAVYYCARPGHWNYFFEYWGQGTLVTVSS VL: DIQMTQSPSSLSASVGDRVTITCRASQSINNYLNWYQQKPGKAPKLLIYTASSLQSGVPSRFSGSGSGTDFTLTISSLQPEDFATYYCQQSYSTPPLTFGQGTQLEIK | nM | 55.8
H4H7795N2 (antibody, human IgG4 S228P, kappa, V domains shown) VH: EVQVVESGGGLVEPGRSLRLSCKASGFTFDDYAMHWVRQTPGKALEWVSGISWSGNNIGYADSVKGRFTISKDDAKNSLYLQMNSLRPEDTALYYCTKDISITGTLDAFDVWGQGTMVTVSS VL: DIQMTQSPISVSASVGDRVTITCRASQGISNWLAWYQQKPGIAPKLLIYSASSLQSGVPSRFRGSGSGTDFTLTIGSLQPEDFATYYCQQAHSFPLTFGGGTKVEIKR | nM | 104
